// provenance: ChEMBL document CHEMBL1154463

- System: K562
- assay.summary: Cytotoxicity against imatinib mesylate-resistant human K562 cells after 48 hrs by trypan blue exclusion method
- Assay type: functional, cell-based
- test.settings: K562, 48 h
endpoint.label: pIC50
Worth noting: pIC50 values are minus log10 of concentrations stated in mol/L.

Q: For the molecule shown here, `CN1N=Nc2c(C(F)(F)F)nn(-c3ccccc3)c2N(C)C1=O` , give the reported pIC50.
Result: 4.42

----------
- System: HL-60
- assay.summary: Cytotoxicity against human HL60 cells after 48 hrs by trypan blue exclusion method
- Assay type: functional, cell-based
- test.settings: HL-60, 48 h
endpoint.label: IC50

Q: For the molecule shown here, `CN1N=Nc2c(C(F)(F)F)nn(-c3ccccc3)c2N(C)C1=O` , give the reported IC50.
Result: 21 µM
